Measured values drawn from patent US6440987B1 for this set.

- compound: "CN(C(=O)/C=C/c1ccoc1)[C@@H]1CC[C@@]2(O)[C@H]3Cc4ccc(O)c5c4[C@@]2(CC[N+]3([O-])CC2CC2)[C@H]1O5 (some centres unmarked)"
  melting point: "238 to 239.8 °C (dec.)"
- compound: "CN(C(=O)C#Cc1ccc(C(F)(F)F)cc1)[C@@H]1CC[C@@]2(O)[C@H]3Cc4ccc(O)c5c4[C@@]2(CC[N+]3([O-])CC2CC2)[C@H]1O5 (some centres unmarked)"
  melting point: "205 to 208 °C (dec.)"
- compound: "Cc1cccc(C#CC(=O)N(C)[C@@H]2CC[C@@]3(O)[C@H]4Cc5ccc(O)c6c5[C@@]3(CC[N+]4([O-])CC3CC3)[C@H]2O6)c1 (some centres unmarked)"
  melting point: "192 to 202 °C (dec.)"
- compound: "CN(C(=O)/C=C/c1ccoc1)[C@@H]1CC[C@@]2(O)[C@H]3Cc4ccc(O)c5c4[C@@]2(CC[N+]3(C)CC2CC2)[C@H]1O5.[I-] (some centres unmarked)"
  melting point: "202.4 to 207.9 °C (dec.)"
- compound: "COc1cccc(/C=C/C(=O)N(C)[C@@H]2CC[C@@]3(O)[C@H]4Cc5ccc(O)c6c5[C@@]3(CC[N+]4([O-])CC3CC3)[C@H]2O6)c1 (some centres unmarked)"
  melting point: "234 to 236.8 °C (dec.)"
